test: Plasma protein binding, mouse; type: in vitro ADME
Readout Label: recovery (%)
Number only, in %; omit the unit.

Could you please provide reported recovery for Cc1c(Cl)cccc1NC(=O)c1cc(-c2ccc(F)c(O)c2)on1 ? Thanks! 0

====

test: Microsomal stability, human liver microsomes; type: in vitro ADME
Readout Label: microsomal CLint

Could you please provide reported microsomal CLint for Cc1c(Cl)cccc1NC(=O)c1cc(-c2ccc(F)c(O)c2)on1 [Compound 60] ? Thanks! < 116 µL/min/mg

====

assay: Plasma stability, human; format: in vitro ADME
Readout Label: half-life

Could you please provide reported half-life for Cc1c(Cl)cccc1NC(=O)c1cc(-c2ccc(F)c(O)c2)on1 ? Thanks! > 2 h
